- Tested on: S. aureus RN-4220 (plasmid pUL5054, MsrA macrolide efflux protein)
- Measurement description: MIC/MBC by broth microdilution, strain RN-4220
- Format: cell-based
- Conditions: Staphylococcus aureus, read-out: Minimum Bactericidal Concentration (MBC)
Value kind: MBC (mg/L)
Write it as a number; the unit mg/L goes unstated.

So for "COc1ccc(C(=O)NN=Cc2ccc([N+](=O)[O-])o2)cc1" , the logged MBC turned out to be 16

So for CC(=O)N1N=C(c2ccc(Cl)cc2)OC1c1ccc([N+](=O)[O-])o1 (centres unmarked) , the logged MBC turned out to be 32

So for O=C(N[C@H](CO)[C@H](O)c1ccc([N+](=O)[O-])cc1)C(Cl)Cl [Chloramphenicol, chloramphenicol, reference compound] , the logged MBC turned out to be 128

So for CC(=O)N1N=C(c2ccc([N+](=O)[O-])cc2)OC1c1ccc([N+](=O)[O-])o1 (centres unmarked) , the logged MBC turned out to be 32

So for "O=C(NN=Cc1ccc([N+](=O)[O-])o1)c1ccc([N+](=O)[O-])cc1" , the logged MBC turned out to be 32

----------
- Test system: S. aureus 007 (MARSA)
- Measurement description: MIC/MBC by broth microdilution, clinical strain 007
- Type: cell-based
- Conditions: Staphylococcus aureus; strain 007; first number of cell MIC-MBC; read-out: Minimum Inhibitory Concentration (MIC)
Assignment: determine reported MIC for the given compounds.
Write it as a number; the unit µg/mL goes unstated.

So for "O=C(NN=Cc1ccc([N+](=O)[O-])o1)c1ccc([N+](=O)[O-])cc1" , the logged MIC turned out to be 8

So for "O=C(NN=Cc1ccc([N+](=O)[O-])o1)c1ccccc1" , the logged MIC turned out to be 8

So for "COc1ccc(C(=O)NN=Cc2ccc([N+](=O)[O-])o2)cc1" , the logged MIC turned out to be 8

So for CC(=O)N1N=C(c2ccccc2)OC1c1ccc([N+](=O)[O-])o1 (centres unmarked) , the logged MIC turned out to be 32

So for CC(=O)N1N=C(c2ccc([N+](=O)[O-])cc2)OC1c1ccc([N+](=O)[O-])o1 (centres unmarked) , the logged MIC turned out to be 16

So for "Cc1ccc(C(=O)NN=Cc2ccc([N+](=O)[O-])o2)cc1" , the logged MIC turned out to be 8

So for "O=C(NN=Cc1ccc([N+](=O)[O-])o1)c1ccc(Cl)cc1" , the logged MIC turned out to be 8

So for CC(=O)N1N=C(c2ccc(Cl)cc2)OC1c1ccc([N+](=O)[O-])o1 (centres unmarked) , the logged MIC turned out to be 16

----------
Assignment: determine reported melting point for the given compounds.

So for CC(=O)N1N=C(c2ccccc2)OC1c1ccc([N+](=O)[O-])o1 (centres unmarked) [Compound 5a] , the logged melting point turned out to be 178 to 180 °C

So for COc1ccc(C2=NN(C(C)=O)C(c3ccc([N+](=O)[O-])o3)O2)cc1 (centres unmarked) [Compound 5e] , the logged melting point turned out to be 181 to 183 °C

So for CC(=O)N1N=C(c2ccc(Cl)cc2)OC1c1ccc([N+](=O)[O-])o1 (centres unmarked) [Compound 5d] , the logged melting point turned out to be 188 to 190 °C

So for CC(=O)N1N=C(c2ccc(C)cc2)OC1c1ccc([N+](=O)[O-])o1 (centres unmarked) [Compound 5b] , the logged melting point turned out to be 160 to 162 °C

So for CC(=O)N1N=C(c2ccc([N+](=O)[O-])cc2)OC1c1ccc([N+](=O)[O-])o1 (centres unmarked) [Compound 5c] , the logged melting point turned out to be 188 to 190 °C

The origin of these recorded values is paper PMC6268585.
